# Assayed Target: T1, MDMX (40 kD), O15151
# T1 chain: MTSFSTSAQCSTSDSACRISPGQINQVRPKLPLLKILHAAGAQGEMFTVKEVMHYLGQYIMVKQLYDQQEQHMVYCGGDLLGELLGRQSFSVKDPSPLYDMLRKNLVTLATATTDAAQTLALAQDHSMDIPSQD
# Test Summary: competitive FP on MDMX, FAM-labeled linear peptide displaced; Ki grade, + = >1000 nM
# Protocol Conditions: remark: other sources report otherwise
Bridge positions count the residues as written; N and C are the ends. Square brackets hold non-standard residues; d marks the D form. R8 = C=CCCCCCC[C@@](C)(N)C(=O)O; hLeu = CC(C)CC[C@H](N)C(=O)O; S5 = C=CCCC[C@](C)(N)C(=O)O; Cou6 = not defined here; Cou8 = not defined here; βAla = NCCC(=O)O
Each entry below lists one item and its recorded Ki value.

| Binder | Assay Endpoint | Endpoint Result |
| --- | --- | --- |
| Cou8-[βAla]LTF[R8]EYWAQ[hLeu][S5]SAA-NH2 (staple 5-12; reading uncertain) [SP447 Cou8BaLTF$r8EYWAQhL$SAA-NH2] | Ki | > 1 µM |

May I ask what Ki has been recorded for Cou6-[βAla]LTF[R8]EYWAQ[hLeu][S5]SAA-NH2 (staple 5-12; reading uncertain) [SP446 Cou6BaLTF$r8EYWAQhL$SAA-NH2] ?
> 1 µM
